Values compiled from patent US9765105B2.

System: Haemophilus parasuis
Assay: in vitro susceptibility, MIC by mini broth dilution
Format: cell-based
Catalogue of MIC values, Haemophilus parasuis values
# answer = value followed by unit

C=CCN(CC=C)C[C@]1(O)[C@H](C)O[C@@H](O[C@H]2[C@H](C)[C@@H](O[C@@H]3O[C@H](C)C[C@H](N(C)C)[C@H]3O)[C@](C)(O)C[C@@H](C)N(CCC)C[C@H](C)[C@@H](O)[C@](C)(O)[C@@H](CC)OC(=O)[C@@H]2C)C[C@@]1(C)OC	2 ug/mi

For the compound CCCN1C[C@H](C)[C@@H](O)[C@](C)(O)[C@@H](CC)OC(=O)[C@H](C)[C@@H](O[C@H]2C[C@@](C)(OC)[C@](O)(CNCc3cnc(C)cn3)[C@H](C)O2)[C@H](C)[C@@H](O[C@@H]2O[C@H](C)C[C@H](N(C)C)[C@H]2O)[C@](C)(O)C[C@H]1C , report MIC values, Haemophilus parasuis. 0.25 ug/mi

For the compound CCCN1C[C@H](C)[C@@H](O)[C@](C)(O)[C@@H](CC)OC(=O)[C@H](C)[C@@H](O[C@H]2C[C@@](C)(OC)[C@](O)(CNCC3CC3)[C@H](C)O2)[C@H](C)[C@@H](O[C@@H]2O[C@H](C)C[C@H](N(C)C)[C@H]2O)[C@](C)(O)C[C@H]1C , report MIC values, Haemophilus parasuis. 0.25 ug/mi

For the compound CC[C@H]1OC(=O)[C@H](C)[C@@H](O[C@H]2C[C@@](C)(OC)[C@](O)(CNC(C)CCc3ccccc3)[C@H](C)O2)[C@H](C)[C@@H](O[C@@H]2O[C@H](C)C[C@H](N(C)C)[C@H]2O)[C@](C)(O)C[C@@H](C)NC[C@H](C)[C@@H](O)[C@]1(C)O (stereo partly shown) , report MIC values, Haemophilus parasuis. 4 ug/mi

* * *

Test system: Actinobacillus pleuropneumoniae CVCC262
Experiment: in vitro susceptibility, MIC by mini broth dilution
Type: cell-based
Conditions: strain CVCC262
Catalogue of MIC values, Actinobacillus pleuropneumoniae CVCC262 values
Provide only the numeric value, understood in ug/mi.

// known answers, use as guide
CCCN1C[C@H](C)[C@@H](O)[C@](C)(O)[C@@H](CC)OC(=O)[C@H](C)[C@@H](O[C@H]2C[C@@](C)(OC)[C@](O)(CNc3cc(Cl)ccc3C)[C@H](C)O2)[C@H](C)[C@@H](O[C@@H]2O[C@H](C)C[C@H](N(C)C)[C@H]2O)[C@](C)(O)C[C@H]1C	4
CC[C@H]1OC(=O)[C@H](C)[C@@H](O[C@H]2C[C@@](C)(OC)[C@](O)(CNCCNC)[C@H](C)O2)[C@H](C)[C@@H](O[C@@H]2O[C@H](C)C[C@H](N(C)C)[C@H]2O)[C@](C)(O)C[C@@H](C)NC[C@H](C)[C@@H](O)[C@]1(C)O	16
CCCN1C[C@H](C)[C@@H](O)[C@](C)(O)[C@@H](CC)OC(=O)[C@H](C)[C@@H](O[C@H]2C[C@@](C)(OC)[C@](O)(CNc3ccc(I)cc3)[C@H](C)O2)[C@H](C)[C@@H](O[C@@H]2O[C@H](C)C[C@H](N(C)C)[C@H]2O)[C@](C)(O)C[C@H]1C	4

For the compound CCCNC[C@]1(O)[C@H](C)O[C@@H](O[C@H]2[C@H](C)[C@@H](O[C@@H]3O[C@H](C)C[C@H](N(C)C)[C@H]3O)[C@](C)(O)C[C@@H](C)N(CCC)C[C@H](C)[C@@H](O)[C@](C)(O)[C@@H](CC)OC(=O)[C@@H]2C)C[C@@]1(C)OC , report MIC values, Actinobacillus pleuropneumoniae CVCC262. 0.125

* * *

Test system: Pasteurella multocida CVCC399
Experiment: in vitro susceptibility, MIC by mini broth dilution
Format: cell-based
Conditions: strain CVCC399
The label satisfied is reserved for MIC values, Pasteurella multocida CVCC399 strictly under 2 ug/mi; not satisfied covers values equal to or above it.

These recorded examples may help you get a feel for the data.
CC[C@H]1OC(=O)[C@H](C)[C@@H](O[C@H]2C[C@@](C)(OC)[C@](O)(CNc3ccc(F)cn3)[C@H](C)O2)[C@H](C)[C@@H](O[C@@H]2O[C@H](C)C[C@H](N(C)C)[C@H]2O)[C@](C)(O)C[C@@H](C)NC[C@H](C)[C@@H](O)[C@]1(C)O [syzx-86]	satisfied
CCCN1C[C@H](C)[C@@H](O)[C@](C)(O)[C@@H](CC)OC(=O)[C@H](C)[C@@H](O[C@H]2C[C@@](C)(OC)[C@](O)(CNc3ccc(Cl)cc3C)[C@H](C)O2)[C@H](C)[C@@H](O[C@@H]2O[C@H](C)C[C@H](N(C)C)[C@H]2O)[C@](C)(O)C[C@H]1C [syzx-197]	satisfied
CC[C@H]1OC(=O)[C@H](C)[C@@H](O[C@H]2C[C@@](C)(OC)[C@](O)(CNCc3ccc(Cl)c(Cl)c3)[C@H](C)O2)[C@H](C)[C@@H](O[C@@H]2O[C@H](C)C[C@H](N(C)C)[C@H]2O)[C@](C)(O)C[C@@H](C)NC[C@H](C)[C@@H](O)[C@]1(C)O [syzx-57]	not satisfied
CC[C@H]1OC(=O)[C@H](C)[C@@H](O[C@H]2C[C@@](C)(OC)[C@](O)(CNCc3ccc(F)cc3)[C@H](C)O2)[C@H](C)[C@@H](O[C@@H]2O[C@H](C)C[C@H](N(C)C)[C@H]2O)[C@](C)(O)C[C@@H](C)NC[C@H](C)[C@@H](O)[C@]1(C)O [syzx-8]	satisfied

Turning now to a further molecule:
Determine whether this molecule shows MIC values, Pasteurella multocida CVCC399 lower than 2 ug/mi (ties excluded): CCCN1C[C@H](C)[C@@H](O)[C@](C)(O)[C@@H](CC)OC(=O)[C@H](C)[C@@H](O[C@H]2C[C@@](C)(OC)[C@](O)(CNCC3CCCCC3)[C@H](C)O2)[C@H](C)[C@@H](O[C@@H]2O[C@H](C)C[C@H](N(C)C)[C@H]2O)[C@](C)(O)C[C@H]1C [syzx-167] not satisfied

* * *

Test system: Actinobacillus pleuropneumoniae CVCC262
Experiment: in vitro susceptibility, MIC by mini broth dilution
Type: cell-based
Conditions: strain CVCC262
Experimental: in vitro tests of susceptibility of the compounds according to the present disclosure against bacterial strains commonly used in laboratories. […] The MICs (minimum inhibitory concentration) of the medicaments prepared according to the examples on the following bacterial strains were measured through mini broth dilution technique. […] The dilution ratio was recorded, and the bacterial liquid for the tests was diluted according to the recorded dilution ratio. […]
Catalogue of MIC values, Actinobacillus pleuropneumoniae CVCC262 values
Provide only the numeric value, understood in ug/mi.

CCCN1C[C@H](C)[C@@H](O)[C@](C)(O)[C@@H](CC)OC(=O)[C@H](C)[C@@H](O[C@H]2C[C@@](C)(OC)[C@](O)(CNc3cccc(Br)c3)[C@H](C)O2)[C@H](C)[C@@H](O[C@@H]2O[C@H](C)C[C@H](N(C)C)[C@H]2O)[C@](C)(O)C[C@H]1C [syzx-223]	0.25

// next item, MIC values, Actinobacillus pleuropneumoniae CVCC262 requested
GET MIC values, Actinobacillus pleuropneumoniae CVCC262 | system: Actinobacillus pleuropneumoniae CVCC262 | item: CCCN1C[C@H](C)[C@@H](O)[C@](C)(O)[C@@H](CC)OC(=O)[C@H](C)[C@@H](O[C@H]2C[C@@](C)(OC)[C@](O)(CNCCCOCC)[C@H](C)O2)[C@H](C)[C@@H](O[C@@H]2O[C@H](C)C[C@H](N(C)C)[C@H]2O)[C@](C)(O)C[C@H]1C [syzx-122] 1

* * *

Tested on: Haemophilus parasuis
Assay: in vitro susceptibility, MIC by mini broth dilution
Type: cell-based
ENDPOINT LABEL: MIC values, Haemophilus parasuis (ug/mi)
Provide only the numeric value, understood in ug/mi.

CCCN1C[C@H](C)[C@@H](O)[C@](C)(O)[C@@H](CC)OC(=O)[C@H](C)[C@@H](O[C@H]2C[C@@](C)(OC)[C@](O)(CNCCCN3CCOCC3)[C@H](C)O2)[C@H](C)[C@@H](O[C@@H]2O[C@H](C)C[C@H](N(C)C)[C@H]2O)[C@](C)(O)C[C@H]1C [syzx-169]	0.25
CCCN1C[C@H](C)[C@@H](O)[C@](C)(O)[C@@H](CC)OC(=O)[C@H](C)[C@@H](O[C@H]2C[C@@](C)(OC)[C@](O)(CNc3ccccc3F)[C@H](C)O2)[C@H](C)[C@@H](O[C@@H]2O[C@H](C)C[C@H](N(C)C)[C@H]2O)[C@](C)(O)C[C@H]1C	0.25
CC[C@H]1OC(=O)[C@H](C)[C@@H](O[C@H]2C[C@@](C)(OC)[C@](O)(CNCc3ccco3)[C@H](C)O2)[C@H](C)[C@@H](O[C@@H]2O[C@H](C)C[C@H](N(C)C)[C@H]2O)[C@](C)(O)C[C@@H](C)NC[C@H](C)[C@@H](O)[C@]1(C)O	8
CCCN1C[C@H](C)[C@@H](O)[C@](C)(O)[C@@H](CC)OC(=O)[C@H](C)[C@@H](O[C@H]2C[C@@](C)(OC)[C@](O)(CNCCCC(=O)O)[C@H](C)O2)[C@H](C)[C@@H](O[C@@H]2O[C@H](C)C[C@H](N(C)C)[C@H]2O)[C@](C)(O)C[C@H]1C	0.25
CCCCN(C)C[C@]1(O)[C@H](C)O[C@@H](O[C@H]2[C@H](C)[C@@H](O[C@@H]3O[C@H](C)C[C@H](N(C)C)[C@H]3O)[C@](C)(O)C[C@@H](C)N(CCC)C[C@H](C)[C@@H](O)[C@](C)(O)[C@@H](CC)OC(=O)[C@@H]2C)C[C@@]1(C)OC	0.5
CCCN1C[C@H](C)[C@@H](O)[C@](C)(O)[C@@H](CC)OC(=O)[C@H](C)[C@@H](O[C@H]2C[C@@](C)(OC)[C@](O)(CNCCOC)[C@H](C)O2)[C@H](C)[C@@H](O[C@@H]2O[C@H](C)C[C@H](N(C)C)[C@H]2O)[C@](C)(O)C[C@H]1C [syzx-158]	4
CCCN1C[C@H](C)[C@@H](O)[C@](C)(O)[C@@H](CC)OC(=O)[C@H](C)[C@@H](O[C@H]2C[C@@](C)(OC)[C@](O)(CNC(CC)CO)[C@H](C)O2)[C@H](C)[C@@H](O[C@@H]2O[C@H](C)C[C@H](N(C)C)[C@H]2O)[C@](C)(O)C[C@H]1C (some centres unmarked)	0.25
CCCNC[C@]1(O)[C@H](C)O[C@@H](O[C@H]2[C@H](C)[C@@H](O[C@@H]3O[C@H](C)C[C@H](N(C)C)[C@H]3O)[C@](C)(O)C[C@@H](C)CN[C@H](C)[C@@H](O)[C@](C)(O)[C@@H](CC)OC(=O)[C@@H]2C)C[C@@]1(C)OC [Tulathromycin, reference compound]	0.25

For the molecule CCCN1C[C@H](C)[C@@H](O)[C@](C)(O)[C@@H](CC)OC(=O)[C@H](C)[C@@H](O[C@H]2C[C@@](C)(OC)[C@](O)(CNCC3CCCCC3)[C@H](C)O2)[C@H](C)[C@@H](O[C@@H]2O[C@H](C)C[C@H](N(C)C)[C@H]2O)[C@](C)(O)C[C@H]1C , report MIC values, Haemophilus parasuis. 2

For the molecule CCCN1C[C@H](C)[C@@H](O)[C@](C)(O)[C@@H](CC)OC(=O)[C@H](C)[C@@H](O[C@H]2C[C@@](C)(OC)[C@](O)(CNc3ccc(I)cc3)[C@H](C)O2)[C@H](C)[C@@H](O[C@@H]2O[C@H](C)C[C@H](N(C)C)[C@H]2O)[C@](C)(O)C[C@H]1C , report MIC values, Haemophilus parasuis. 4

For the molecule C#CCNC[C@]1(O)[C@H](C)O[C@@H](O[C@H]2[C@H](C)[C@@H](O[C@@H]3O[C@H](C)C[C@H](N(C)C)[C@H]3O)[C@](C)(O)C[C@@H](C)N(CCC)C[C@H](C)[C@@H](O)[C@](C)(O)[C@@H](CC)OC(=O)[C@@H]2C)C[C@@]1(C)OC , report MIC values, Haemophilus parasuis. 0.25

For the molecule CC[C@H]1OC(=O)[C@H](C)[C@@H](O[C@H]2C[C@@](C)(OC)[C@](O)(CNCc3ccccc3F)[C@H](C)O2)[C@H](C)[C@@H](O[C@@H]2O[C@H](C)C[C@H](N(C)C)[C@H]2O)[C@](C)(O)C[C@@H](C)NC[C@H](C)[C@@H](O)[C@]1(C)O , report MIC values, Haemophilus parasuis. 0.5

For the molecule CCCN1C[C@H](C)[C@@H](O)[C@](C)(O)[C@@H](CC)OC(=O)[C@H](C)[C@@H](O[C@H]2C[C@@](C)(OC)[C@](O)(CNc3cccnc3Cl)[C@H](C)O2)[C@H](C)[C@@H](O[C@@H]2O[C@H](C)C[C@H](N(C)C)[C@H]2O)[C@](C)(O)C[C@H]1C , report MIC values, Haemophilus parasuis. 4
